target: CYP2D6 (Homo sapiens); assay: clinical; details: plasma, po, 100 mg
Sequence (P10635 whole entry): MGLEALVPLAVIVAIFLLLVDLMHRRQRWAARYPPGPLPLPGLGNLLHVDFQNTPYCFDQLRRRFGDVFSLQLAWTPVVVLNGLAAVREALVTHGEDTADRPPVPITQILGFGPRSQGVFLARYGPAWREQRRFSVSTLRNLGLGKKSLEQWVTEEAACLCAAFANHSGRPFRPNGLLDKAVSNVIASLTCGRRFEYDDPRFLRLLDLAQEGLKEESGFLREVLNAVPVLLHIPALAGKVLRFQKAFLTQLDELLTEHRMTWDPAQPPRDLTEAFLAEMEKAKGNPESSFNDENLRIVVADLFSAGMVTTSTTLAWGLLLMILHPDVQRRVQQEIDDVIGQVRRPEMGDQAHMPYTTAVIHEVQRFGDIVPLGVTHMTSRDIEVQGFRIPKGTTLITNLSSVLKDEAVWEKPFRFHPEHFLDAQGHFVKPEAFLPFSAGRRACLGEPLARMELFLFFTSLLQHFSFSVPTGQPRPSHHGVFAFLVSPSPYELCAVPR
RECORDED METRIC: Cmax
Please answer using the number first and the unit second.

Read off the recorded Cmax for COCCc1ccc(OCC(O)CNC(C)C)cc1 (stereo not shown)
84 ng/mL

* * *

target: CYP2D6 (Homo sapiens); experiment: clinical; conditions: plasma, oral, 100 mg
RECORDED METRIC: Tmax

Read off the recorded Tmax for COCCc1ccc(OCC(O)CNC(C)C)cc1 (stereo not shown) [metoprolol]
0.75 to 2 h

* * *

molecular target: CYP2D6 (Homo sapiens); assay: clinical; conditions: plasma, po, 100 mg
RECORDED METRIC: Tmax

# lookup: CYP2D6 (Homo sapiens) Tmax, key = COCCc1ccc(OCC(O)CNC(C)C)cc1 (stereo not shown)
~2 h
